Recorded pIC50 for the following compounds
- tested.system: A17 RT (Human immunodeficiency virus type 1 group M subtype B, UniProt P04585, K690N/Y768C)
- Construct: A17 RT was employed in the assay; made in house; host or cells: bacteria
- assay.explanation: biochemical
- Set-up: species or system HIV-1
The value called pIC50 is obtained by taking minus log10 of the concentration in mol/L.

A selection of reference data follows.
compound	reported
COC(=O)/C=C(/OC)C1(C(F)(F)F)OC(=O)Nc2ccc(Cl)cc21 (stereo not drawn)	4.00
COc1ccccc1C#CC1(C(F)(F)F)OC(=O)Nc2ccc(Cl)cc21 (stereo not drawn)	6.57
CCCCC1(C(F)(F)F)OC(=O)Nc2ccc(Cl)cc21 (stereo not drawn)	4.60
O=C1Nc2ccc(Cl)cc2C(C#CCN2CCCC2)(C(F)(F)F)O1 (racemic)	5.46

Next, consider the following compound.
# lookup: pIC50 of O=C1Nc2ccc(Cl)cc2C(CCc2ccccc2)(C(F)(F)F)O1 (stereo not drawn)
5.44

====

- tested.system: reverse transcriptase of HIV2 (Human immunodeficiency virus type 2 subtype A, UniProt P04584)
- Sequence (P04584 613-1171): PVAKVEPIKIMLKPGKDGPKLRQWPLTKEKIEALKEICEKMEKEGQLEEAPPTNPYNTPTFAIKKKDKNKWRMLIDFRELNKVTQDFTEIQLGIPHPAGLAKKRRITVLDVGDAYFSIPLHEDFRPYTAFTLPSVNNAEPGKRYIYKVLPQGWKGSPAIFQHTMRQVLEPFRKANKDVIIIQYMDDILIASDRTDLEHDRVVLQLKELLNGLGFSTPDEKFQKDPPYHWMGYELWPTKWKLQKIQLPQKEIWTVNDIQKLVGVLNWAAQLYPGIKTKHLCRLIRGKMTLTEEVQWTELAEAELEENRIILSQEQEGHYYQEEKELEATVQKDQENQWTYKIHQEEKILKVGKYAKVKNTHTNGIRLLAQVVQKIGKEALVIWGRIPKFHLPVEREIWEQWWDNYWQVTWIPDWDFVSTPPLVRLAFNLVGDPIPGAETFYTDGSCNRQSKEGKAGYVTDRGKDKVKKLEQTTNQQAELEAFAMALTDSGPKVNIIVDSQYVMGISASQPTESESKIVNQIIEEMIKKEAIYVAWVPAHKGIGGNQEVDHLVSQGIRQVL
- Sequence (P04584 613-1051): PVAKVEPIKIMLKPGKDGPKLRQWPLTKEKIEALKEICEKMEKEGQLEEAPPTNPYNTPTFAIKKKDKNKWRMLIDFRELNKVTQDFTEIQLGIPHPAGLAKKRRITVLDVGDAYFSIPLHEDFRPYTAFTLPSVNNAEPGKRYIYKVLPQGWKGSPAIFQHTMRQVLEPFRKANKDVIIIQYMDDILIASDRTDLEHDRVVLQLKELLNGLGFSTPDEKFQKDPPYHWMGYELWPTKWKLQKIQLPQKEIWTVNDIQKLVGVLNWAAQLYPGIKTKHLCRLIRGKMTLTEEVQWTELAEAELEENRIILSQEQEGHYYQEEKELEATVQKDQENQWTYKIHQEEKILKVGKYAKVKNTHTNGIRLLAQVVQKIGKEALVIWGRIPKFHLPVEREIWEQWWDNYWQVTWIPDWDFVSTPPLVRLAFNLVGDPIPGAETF
observation.type: IC50 (µM)
Please reply with the bare figure in µM and do not write the unit itself.

Endpoint output: IC50 of O=C1Nc2ccc(Cl)cc2[C@@](C#CC2CC2)(C(F)(F)F)O1 [37.2(-)] . Value?
80.8

====

- assay.explanation: Protein binding (HPLC method)
- Assay type: in vitro ADME
- condition.label: Normal Human Plasma (HPLC Method)
observation.type: fraction unbound

Which fraction unbound value belongs to O=C1Nc2ccc(Cl)cc2[C@@](C#CC2CC2)(C(F)(F)F)O1 [37.2(-)] ?
0.02

====

- tested.system: recombinant HIV reverse transcriptase (HIV RTR) (Human immunodeficiency virus type 1 group M subtype B, UniProt P04585)
- Construct: recombinant HIV reverse transcriptase (HIV RTR); made in house; host or cells: E. coli
- assay.explanation: Reverse transcriptase assay (wild type)
- Assay type: biochemical, HIV-1
- condition.label: Table II; wild-type RT; read-out: IC*50 wt
observation.type: IC50 (µM)
// return numeric value only (unit: µM, not printed)

Some solved entries appear below for comparison.
compound	observation.type	reported
CCC1(CC)OC(=S)Nc2ccc(Cl)cc21 [Compound 45]	IC50	0.56
CCC1(c2ccccc2)OC(=S)Nc2ccc(Cl)cc21 (stereo not drawn) [Compound 44]	IC50	0.015
CCCC1(C2CC2)OC(=S)Nc2ccc(Cl)cc21 (stereo not drawn) [Compound 40]	IC50	0.048
CCCCC1(c2ccccc2)OC(=S)Nc2ccc(Cl)cc21 (stereo not drawn) [Compound 42]	IC50	1.45
CCCC1(C2CCCC2)OC(=S)Nc2ccc(Cl)cc21 (stereo not drawn) [Compound 41]	IC50	1.4
S=C1Nc2ccc(Cl)cc2C(C2CC2)(C2CC2)O1 [Compound 38]	IC50	0.136
S=C1Nc2ccc(Cl)cc2C(c2ccccc2)(C2CC2)O1 (stereo not drawn) [Compound 46]	IC50	0.041
CCCC1(c2ccccc2)OC(=S)Nc2ccc(Cl)cc21 (stereo not drawn) [Compound 43]	IC50	0.61

// next item, IC50 requested
So what's the measured IC50 for this one? CCC1(C2CC2)OC(=S)Nc2ccc(Cl)cc21 (stereo not drawn) [Compound 39]
0.51

====

Below: a set of entries, each annotated with reported IC50.
- tested.system: A17 RT (Human immunodeficiency virus type 1 group M subtype B, UniProt P04585, K690N/Y768C)
- Construct: A17 RT was employed in the assay
- assay.explanation: biochemical
Lab book: enter the figure in nM, no units written.

compound	readout.unit	IC50
O=C1Nc2ccc(Cl)cc2[C@@](C#Cc2ccccc2)(C(F)(F)F)O1 [4(-)]	nM	69
O=C1Nc2ccc(Cl)cc2C(C#Cc2ccccc2)(C(F)(F)F)O1 (racemic) [12(+/-)]	nM	280
COCC#CC1(C(F)(F)F)OC(=O)Nc2ccc(Cl)cc21 (centres unmarked)	nM	2650

// moving on: another record for IC50
Which IC50 is listed for COc1cccc(C#CC2(C(F)(F)F)OC(=O)Nc3ccc(Cl)cc32)c1 (centres unmarked) ?
390
